Target: AAA1 N^α -acetyltransferase (N^α -AT) (Saccharomyces cerevisiae, UniProt P07347+P12945)
Sequence (P12945 2-854 limits assumed): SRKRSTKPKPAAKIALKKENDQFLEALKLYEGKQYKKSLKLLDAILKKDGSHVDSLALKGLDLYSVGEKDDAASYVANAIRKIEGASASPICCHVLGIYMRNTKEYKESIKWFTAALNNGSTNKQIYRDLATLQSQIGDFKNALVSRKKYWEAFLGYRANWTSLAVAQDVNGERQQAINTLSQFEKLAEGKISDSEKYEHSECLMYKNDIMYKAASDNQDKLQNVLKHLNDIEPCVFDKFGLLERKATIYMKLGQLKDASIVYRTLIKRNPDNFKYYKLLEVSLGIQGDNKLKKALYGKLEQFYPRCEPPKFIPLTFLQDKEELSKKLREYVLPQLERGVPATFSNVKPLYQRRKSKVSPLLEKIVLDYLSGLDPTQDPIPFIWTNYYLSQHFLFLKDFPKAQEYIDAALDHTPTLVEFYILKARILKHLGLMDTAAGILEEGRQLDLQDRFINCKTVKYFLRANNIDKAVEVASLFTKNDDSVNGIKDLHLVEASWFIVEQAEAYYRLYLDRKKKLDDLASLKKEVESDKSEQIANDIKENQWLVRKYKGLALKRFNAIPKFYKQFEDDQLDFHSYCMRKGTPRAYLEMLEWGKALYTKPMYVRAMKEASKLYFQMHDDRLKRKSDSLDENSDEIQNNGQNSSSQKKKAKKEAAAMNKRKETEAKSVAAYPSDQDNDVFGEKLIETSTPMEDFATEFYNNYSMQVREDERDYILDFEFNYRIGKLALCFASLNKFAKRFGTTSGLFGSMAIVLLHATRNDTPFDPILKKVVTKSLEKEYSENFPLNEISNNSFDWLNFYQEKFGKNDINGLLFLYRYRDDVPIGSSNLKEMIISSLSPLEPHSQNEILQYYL
Sequence (P07347 1-238): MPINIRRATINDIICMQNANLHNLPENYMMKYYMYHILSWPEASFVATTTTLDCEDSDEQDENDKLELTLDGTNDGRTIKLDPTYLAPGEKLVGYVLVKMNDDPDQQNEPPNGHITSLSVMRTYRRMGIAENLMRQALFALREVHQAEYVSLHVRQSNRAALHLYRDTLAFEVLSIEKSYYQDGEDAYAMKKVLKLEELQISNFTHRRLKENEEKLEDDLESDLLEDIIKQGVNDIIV
Assay: Relative activity of N^α -AT for N^α -acetylation of synthetic peptides
Format: biochemical
Settings: Table 7, influence of the penultimate amino terminal residue
value-type: Activity (%) (mean activity ± S.D.) N^a -AT
// note: answer is a bare numeric in %

Request: // map SCPETQKGVIFYESHGKLEYKDIP (SCPETQKGVIFYESHGKLEYKDIP) to recorded Activity (%) (mean activity ± S.D.) N^a -AT (system: AAA1 N^α -acetyltransferase (N^α -AT) (Saccharomyces cerevisiae, UniProt P07347+P12945))
Response: 136

Request: What would you report for SYPETQKGVIFYESHGKLEYKDIP (SYPETQKGVIFYESHGKLEYKDIP) ?
Response: 169

Request: What would you report for SPPETQKGVIFYESHGKLEYKDIP (SPPETQKGVIFYESHGKLEYKDIP) ?
Response: 0

Request: What would you report for SKPETQKGVIFYESHGKLEYKDIP (SKPETQKGVIFYESHGKLEYKDIP) ?
Response: 151

Request: What would you report for SQPETQKGVIFYESHGKLEYKDIP (SQPETQKGVIFYESHGKLEYKDIP) ?
Response: 134
